# melting point values compiled below

Before answering, review these 4 worked examples.
Smiles record | Result
CC(=O)Nc1cccc2ccccc12 | 156 to 160 °C
N#Cc1ccoc1 | 29 to 31 °C
CCOC(=O)c1sc(-c2ccccc2)nc1C | 36 to 39 °C
O=C(c1cccs1)c1noc(-c2ccc3ccccc3c2)c1S(=O)(=O)c1ccccc1 | 128 °C

For the next question, use this compound.
QUERY: Entry under review: `Cn1nc(C(F)(F)F)c(C=O)c1Cl` . Reported melting point?
RESULT: 41 to 42 °C

###

Readout kind: melting point (°C)

(P) c1ccc(C2c3ccccc3-c3ccccc32)cc1
(Q) Cc1cc(C)c(Br)c(C)c1N
(R) COC(=O)C1=C(C)NC(=S)NC1c1cccc([N+](=O)[O-])c1 (stereo not drawn)
QUERY: Rank the items above by melting point, largest value first. Rank them, then answer with their labels in that order.
RESULT: R, P, Q

(P) CC(=O)N1CCNCC1
(Q) O=C(O)c1ccccc1C(c1ccc(O)cc1)c1ccc(O)cc1
(R) O=C(NC1Cc2ccccc21)c1ccccc1 (stereo not drawn)
QUERY: Rank the items in ascending order with respect to melting point. Rank them, then answer with their labels in that order.
RESULT: P, R, Q
(P: 32 °C, R: 157 °C, Q: 238 °C)
